target: Recombinant IDO1 (Homo sapiens, UniProt P14902); construct: His tag (N); made in house; host or cells: E. coli; test: IDO1 enzymatic assay; type: biochemical; conditions: Table 1, 5-substituted imidazo[1,5-a]pyridines; 50 nM IDO1, 1.3 mM D-tryptophan; read-out: Enzyme IC50 (nM) IDO1
Sequence (P14902 whole entry): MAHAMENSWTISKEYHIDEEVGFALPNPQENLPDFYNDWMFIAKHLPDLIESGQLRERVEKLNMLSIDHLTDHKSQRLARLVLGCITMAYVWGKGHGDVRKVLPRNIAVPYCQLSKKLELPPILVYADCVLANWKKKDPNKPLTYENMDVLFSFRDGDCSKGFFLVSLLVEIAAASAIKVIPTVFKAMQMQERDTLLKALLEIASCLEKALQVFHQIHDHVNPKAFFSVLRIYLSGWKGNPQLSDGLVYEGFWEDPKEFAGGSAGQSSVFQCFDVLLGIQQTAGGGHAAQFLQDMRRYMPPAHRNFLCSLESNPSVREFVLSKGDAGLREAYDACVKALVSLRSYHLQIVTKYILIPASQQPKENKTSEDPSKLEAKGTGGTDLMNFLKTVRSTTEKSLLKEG
A collection of molecules and their measured IC50
Quick note: give the figure in nM, leave out the unit.

MOLECULE: OC1CC2CC1CC2C(O)c1c(C2CC2)ccc2cncn12 (stereo not shown)
IC50 [nM]: 430
//
MOLECULE: OC(c1c(I)ccc2cncn12)C1CCCCC1 (stereo not shown) [Example A125]
IC50 [nM]: 31
//
MOLECULE: OC(c1c(Br)ccc2cncn12)C1CCCCC1 (single isomer, unassigned) [Example A118b]
IC50 [nM]: 1600
//
MOLECULE: OC(c1c(C(F)(F)F)ccc2cncn12)C1CCCCC1 (stereo not shown)
IC50 [nM]: 65
//
MOLECULE: OC(c1c(-c2ccccc2)ccc2cncn12)C1CCCCC1 (stereo not shown)
IC50 [nM]: 850

Switching to the query record.
Ask: Record lookup: for Recombinant IDO1 (Homo sapiens, UniProt P14902), what IC50 belongs to FC(c1cc(Cl)cc2cncn12)C1CCCCC1 (stereo not shown) ?
Result: 1800

* * *

molecular target: Recombinant TDO (Homo sapiens, UniProt P48775); construct: His tag (C); made in house; host or cells: E. coli; assay: TDO enzymatic assay; type: biochemical; conditions: Table 2, 8-substituted imidazo[1,5-a]pyridines; 100 nM TDO, 0.5 mM L-tryptophan; read-out: Enzyme IC50 (nM) TDO
Sequence (P48775 whole entry): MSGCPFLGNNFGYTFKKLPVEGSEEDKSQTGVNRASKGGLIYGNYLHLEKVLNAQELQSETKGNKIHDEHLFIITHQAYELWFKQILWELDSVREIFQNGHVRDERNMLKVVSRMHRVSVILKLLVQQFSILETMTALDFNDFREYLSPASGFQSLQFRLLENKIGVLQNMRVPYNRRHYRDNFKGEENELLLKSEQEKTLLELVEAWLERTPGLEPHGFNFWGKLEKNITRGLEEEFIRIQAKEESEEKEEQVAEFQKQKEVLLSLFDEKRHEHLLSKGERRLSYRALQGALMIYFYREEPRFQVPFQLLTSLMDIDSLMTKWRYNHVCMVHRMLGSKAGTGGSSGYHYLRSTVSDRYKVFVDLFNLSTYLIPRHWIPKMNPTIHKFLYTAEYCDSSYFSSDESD
A collection of compounds and their measured IC50
Please give the number followed by its unit.

// worked examples, IC50 included
COMPOUND: OC(c1c(Cl)ccn2cncc12)C1CCCCC1 (stereo not shown)
TESTED ON: Recombinant TDO (Homo sapiens, UniProt P48775)
IC50: 940 nM
--
COMPOUND: Cc1ccn2cncc2c1C(O)CC1CCCCC1 (stereo not shown)
TESTED ON: Recombinant TDO (Homo sapiens, UniProt P48775)
IC50: 1000 nM
--
COMPOUND: Cc1cc(C(O)CC2CCCCC2)c2cncn2c1 (stereo not shown)
TESTED ON: Recombinant TDO (Homo sapiens, UniProt P48775)
IC50: 130 nM

Ask: What value of measured IC50 is listed for OC(c1cccn2cncc12)C1CCCCCC1 (stereo not shown) ?
Result: 740 nM

Ask: What value of measured IC50 is listed for OC(CC1CCCCC1)c1c(C2CC2)ccn2cncc12 (stereo not shown) ?
Result: 1000 nM

Ask: What value of measured IC50 is listed for OC(CC1CCCCC1)c1cc(Cl)cn2cncc12 (stereo not shown) ?
Result: 190 nM

* * *

target: cellular IDO1 in HeLa cells (Homo sapiens, UniProt P14902); construct: endogenous in cells; host or cells: HeLa cells (American Type Tissue Culture Collection), induced with human recombinant IFN-γ; experiment: HeLa cell-based IDO1 Kyn (kynurenine) production assay; conditions: Table 1, 5-substituted imidazo[1,5-a]pyridines, IFN-γ 100 ng/mL, 48 hours
Sequence (P14902 whole entry): as the sequence (P14902 whole entry) above
A collection of compounds and their measured pEC50
Here pEC50 is given on a logarithmic scale as minus log10 of the concentration in mol/L.

COMPOUND: OC(c1c(C2CC2)ccc2cncn12)C1CCCCC1 (single isomer, unassigned) [Example A129a]
DATA VALUE: 7.42

COMPOUND: OC(c1c(I)ccc2cncn12)C1CCCCC1 (single isomer, unassigned) [Example A125a]
DATA VALUE: 6.86

COMPOUND: OC(c1c(Cl)ccc2cncn12)C1CCCCC1 (stereo not drawn) [Example A116]
DATA VALUE: 6.64

Ask: Record lookup: for cellular IDO1 in HeLa cells (Homo sapiens, UniProt P14902), what pEC50 belongs to OC(c1cc(C(F)(F)F)cc2cncn12)C1CCCCC1 (stereo not drawn) [Example A109] ?
Result: 5.81

Ask: Record lookup: for cellular IDO1 in HeLa cells (Homo sapiens, UniProt P14902), what pEC50 belongs to OC(c1c(C2CC2)ccc2cncn12)C1CCCCC1 (stereo not drawn) [Example A129] ?
Result: 7.16

Ask: Record lookup: for cellular IDO1 in HeLa cells (Homo sapiens, UniProt P14902), what pEC50 belongs to OC(CC1CCCCC1)c1c(I)ccc2cncn12 (single isomer, unassigned) [Example A124a] ?
Result: 7.04

Ask: Record lookup: for cellular IDO1 in HeLa cells (Homo sapiens, UniProt P14902), what pEC50 belongs to OC(c1c(Br)ccc2cncn12)C1CCCCC1 (single isomer, unassigned) [Example A118a] ?
Result: 6.46

Ask: Record lookup: for cellular IDO1 in HeLa cells (Homo sapiens, UniProt P14902), what pEC50 belongs to Cc1ccc2cncn2c1C(O)C1CCCCC1 (stereo not drawn) ?
Result: 6.57

Ask: Record lookup: for cellular IDO1 in HeLa cells (Homo sapiens, UniProt P14902), what pEC50 belongs to OC(c1c(I)ccc2cncn12)C1CC1 (stereo not drawn) ?
Result: 5.07
